- test-system: KRAS G12S (Homo sapiens, UniProt P01116+P62937, G12S)
- Sequence (P01116 1-169 isoform P01116-2 G12S limits assumed): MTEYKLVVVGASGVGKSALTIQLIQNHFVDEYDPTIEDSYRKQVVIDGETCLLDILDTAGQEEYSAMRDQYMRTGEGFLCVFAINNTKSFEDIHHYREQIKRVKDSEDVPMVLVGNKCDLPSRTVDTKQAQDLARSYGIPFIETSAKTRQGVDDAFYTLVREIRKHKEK
- Sequence (P62937 whole entry): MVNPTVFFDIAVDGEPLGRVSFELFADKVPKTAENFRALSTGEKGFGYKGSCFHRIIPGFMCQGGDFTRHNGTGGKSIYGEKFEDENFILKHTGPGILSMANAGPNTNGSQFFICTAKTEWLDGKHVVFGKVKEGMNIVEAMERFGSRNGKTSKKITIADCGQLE
- test-summary: Disruption of BRAF RBD interaction with Ras (FRET / MOA assay, with Cyclophilin A)
- Type: biochemical
- condition: read-out: KRAS G12S FRET data, IC50
pIC50: −log10 of the molar value.
quantity: pIC50

Worked cases, pIC50 given:
[
  {
    "molecule": "CCn1c(-c2cccnc2[C@H](C)OC)c2c3cc(ccc31)-c1cc(O)cc(c1)C[C@H](NC(=O)[C@H](C(C)C)N(C)C(=O)[C@@H]1OCC[C@@H]1c1cccnc1)C(=O)N1CCC[C@H](N1)C(=O)OCC(C)(C)C2 (atropisomer, axis not shown) [Example A546]",
    "pIC50": "7.00 to 8.00"
  },
  {
    "molecule": "CCn1c(-c2cccnc2[C@H](C)OC)c2c3cc(ccc31)-c1cc(O)cc(c1)C[C@H](NC(=O)[C@H](C(C)C)N(C)C(=O)C1(C#N)CC1)C(=O)N1CCC[C@H](N1)C(=O)OCC(C)(C)C2 (racemic) [Example A159]",
    "pIC50": "7.00 to 8.00"
  },
  {
    "molecule": "CCn1c(-c2cccnc2[C@H](C)OC)c2c3cc(ccc31)-c1csc(n1)C[C@H](NC(=O)[C@H](C1CCCC1)N(C)C(C)=O)C(=O)N1CCC[C@H](N1)C(=O)OCC(C)(C)C2 [Example A141]",
    "pIC50": "5.00 to 6.00"
  },
  {
    "molecule": "C=CC(=O)N1CCC2(C1)CN(C(=O)N(C)[C@H](C(=O)N[C@H]1Cc3nc(cs3)-c3ccc4c(c3)c(c(-c3cccnc3[C@H](C)OC)n4CC(F)(F)F)CC(C)(C)COC(=O)C3CCCN(N3)C1=O)C(C)C)C2 (stereo partly shown) [Example A603]",
    "pIC50": "6.00 to 7.00"
  },
  {
    "molecule": "CCn1c(-c2cnccc2COC)c2c3cc(ccc31)-c1cc(O)cc(c1)C[C@H](NC(=O)[C@H](C(C)C)N(C)C(=O)[C@H]1CCN(C(C)C)C1)C(=O)N1CCC[C@H](N1)C(=O)OCC(C)(C)C2 [Example A41]",
    "pIC50": "6.00 to 7.00"
  },
  {
    "molecule": "CCn1c(-c2cc(N3CCN(C)CC3)cnc2[C@H](C)OC)c2c3cc(ccc31)-c1csc(n1)C[C@H](NC(C)=O)C(=O)N1CCC[C@H](N1)C(=O)OCC(C)(C)C2 (atropisomer, axis not shown) [Example A340]",
    "pIC50": "< 5.00"
  },
  {
    "molecule": "CCn1c(-c2cccnc2[C@H](C)OC)c2c3cc(ccc31)-c1csc(n1)C[C@H](NC(=O)[C@H](COC1CN(C(=O)C#CC(C)(C)N(C)C)C1)OC)C(=O)N1CCC[C@H](N1)C(=O)OCC(C)(C)C2 (atropisomer, axis not shown) [Example A705]",
    "pIC50": "5.00 to 6.00"
  },
  {
    "molecule": "CCn1c(-c2cnccc2COC)c2c3cc(ccc31)-c1cc(O)cc(c1)C[C@H](NC(=O)[C@H](C(C)C)N(C)C(=O)OC1CNC1)C(=O)N1CCC[C@H](N1)C(=O)OCC(C)(C)C2 [Example A81]",
    "pIC50": "6.00 to 7.00"
  }
]

Ask: // lookup pIC50 for C=CC(=O)N1CC[C@H](C(=O)N(C)[C@H](C(=O)N[C@H]2Cc3cc(O)cc(c3)-c3ccc4c(c3)c(c(-c3nccnc3COC)n4CC)CC(C)(C)COC(=O)[C@@H]3CCCN(N3)C2=O)C(C)C)C1 [Example A085]
Reply: < 5.00

Ask: Param item = CCn1c(-c2cc(N3CCN(C)CC3)cnc2[C@H](C)OC)c2c3cc(ccc31)-c1csc(n1)C[C@H](NC(=O)[C@H](C(C)C)N(C)C(=O)N1C[C@@H](C)N(C)C[C@H]1C)C(=O)N1CCC[C@H](N1)C(=O)OCC(C)(C)C2 (atropisomer, axis not shown) [Example A476] ; retrieve measured pIC50.
Reply: 6.00 to 7.00

Ask: Suppose we examine the molecule CCn1c(-c2cccnc2[C@H](C)OC)c2c3cc(ccc31)-c1csc(n1)C[C@H](NC(=O)[C@H](C(C)C)N(C)C(=O)N1CCCC1)C(=O)N1CCC[C@H](N1)C(=O)OCC(C)(C)C2 (atropisomer, axis not shown) [Example A400] ; what pIC50 value has been reported?
Reply: 7.00 to 8.00

Ask: What does the record list as pIC50 for C=CC(=O)N1CCO[C@H]2CN(C(=O)N(C)[C@H](C(=O)N[C@H]3Cc4cccc(c4)-c4ccc5c(c4)c(c(-c4cccnc4[C@H](C)OC)n5CC)CC(C)(C)COC(=O)C4CCCN(N4)C3=O)C(C)C)C[C@H]21 (stereo partly shown) [Example A610] ?
Reply: 5.00 to 6.00

Ask: // lookup pIC50 for CCn1c(-c2cccnc2[C@H](C)OC)c2c3cc(ccc31)-c1csc(n1)C[C@H](NC(=O)[C@H](C(C)C)N(C)C(=O)N1CCN(C(=O)CCN(C)C)CC1)C(=O)N1CCC[C@H](N1)C(=O)OCC(C)(C)C2 [Example A459]
Reply: 7.00 to 8.00

Ask: Using the record for CCn1c(-c2cc(N3CCN(C)CC3)cnc2[C@H](C)OC)c2c3cc(ccc31)-c1cc(O)cc(c1)C[C@H](NC(=O)[C@H](C1CCCC1)N(C)C(=O)[C@H]1OCC[C@H]1c1ccccc1)C(=O)N1CCC[C@H](N1)C(=O)OCC(C)(C)C2 [Example A423] , report its pIC50.
Reply: 6.00 to 7.00

Ask: # query: pIC50 of entry CCn1c(-c2cccnc2[C@H](C)OC)c2c3cc(ccc31)-c1csc(n1)C[C@H](NC(=O)[C@H](C(C)C)N(C)C(=O)N1CC(NC)C1)C(=O)N1CCC[C@H](N1)C(=O)OCC(C)(C)C2 (atropisomer, axis not shown) [Example A337]
Reply: 6.00 to 7.00

Ask: Name the recorded pIC50 for C=CC(=O)N1CC[C@H](C(=O)N(C)[C@H](C(=O)N[C@H]2Cc3cc(O)cc(c3)-c3ccc4c(c3)c(c(-c3ccc(CN5CC[C@@H](O)C5)cc3)n4CC)CC(C)(C)COC(=O)[C@@H]3CCCN(N3)C2=O)C(C)C)C1 [Examples A001] .
Reply: 5.00 to 6.00
